# key: entry, value: TD50
Test system: rodent lifetime carcinogenesis bioassay, tumor incidence TD50
Protocol: carcinogenic potency in animals, long-term in vivo studies, CPDB compilation (AID 1745844)
Stated Conditions: rat; strain Fischer 344; males; by gavage; site: any site (literature study); lesion: several types; types named in the paper; dosed 104 weeks; study length 105 weeks
Measured Metric: TD50

compound=COP(=O)(OC)OC assay_value="54.5 mg/kg/day"
compound="CCCC(Cl)CCCC(Cl)CCC(Cl)CCC(Cl)CCC(Cl)CCCC(Cl)CCC (configuration not stated)" assay_value="75.7 mg/kg/day"

----------
Test system: rodent lifetime carcinogenesis bioassay, tumor incidence TD50
Protocol: carcinogenic potency in animals, long-term in vivo studies, CPDB compilation (AID 1745844)
Stated Conditions: rat; strain Fischer 344; females; by gavage; site: forestomach; lesion: squamous-cell carcinoma + squamous-cell papilloma; dosed 91 weeks; study length 105 weeks
Measured Metric: TD50

test_smiles=ClCC(Cl)CCl assay_value="1.64 mg/kg/day"

----------
System: rodent lifetime carcinogenesis bioassay, tumor incidence TD50
Protocol: carcinogenic potency in animals, long-term in vivo studies, CPDB compilation (AID 1745844)
Stated Conditions: rat; strain Fischer 344; males; by gavage; site: Zymbal's gland; lesion: carcinoma; dosed 94 weeks; study length 104 weeks
Measured Metric: TD50

test_smiles=ClCC(Cl)CCl assay_value="297 mg/kg/day"

----------
Test system: rodent lifetime carcinogenesis bioassay, tumor incidence TD50
Protocol: carcinogenic potency in animals, long-term in vivo studies, CPDB compilation (AID 1745844)
Stated Conditions: mouse; strain B6C3F1; males; by gavage; site: kidney cortex; lesion: adenoma + carcinoma; dosed 103 weeks; study length 104 weeks
Measured Metric: TD50 (mg/kg/day)

test_smiles=O=Cc1ccco1 units_text=mg/kg/day assay_value=1400

----------
Test system: rodent lifetime carcinogenesis bioassay, tumor incidence TD50
Protocol: carcinogenic potency in animals, long-term in vivo studies, CPDB compilation (AID 1745844)
Stated Conditions: rat; strain Fischer 344; females; in feed; site: urinary bladder; lesion: squamous-cell carcinoma; dosed 103 weeks; study length 104 weeks
Measured Metric: TD50

test_smiles=Nc1ccc(N)c2c1C(=O)c1c(N)ccc(N)c1C2=O measurement_target="rodent lifetime carcinogenesis bioassay, tumor incidence TD50" assay_value="1580 mg/kg/day"

----------
Test system: rodent lifetime carcinogenesis bioassay, tumor incidence TD50
Protocol: carcinogenic potency in animals, long-term in vivo studies, CPDB compilation (AID 1745844)
Stated Conditions: rat; strain Marshall; males; by gavage; site: kidney; lesion: tubular-cell adenoma + tubular-cell adenocarcinoma; dosed 103 weeks; study length 104 weeks
Measured Metric: TD50 (mg/kg/day)

test_smiles=ClC=C(Cl)Cl units_text=mg/kg/day assay_value=5710

----------
Test system: rodent lifetime carcinogenesis bioassay, tumor incidence TD50
Protocol: carcinogenic potency in animals, long-term in vivo studies, CPDB compilation (AID 1745844)
Stated Conditions: mouse; strain B6C3F1; females; inhaled; site: lung; lesion: adenocarcinoma; dosed 52 weeks; study length 52 weeks
Active and inactive are the calls of the source. The rule behind the calls is not given here.
Measured Metric: TD50

test_smiles=O=CCCCC=O assay_value="0.54 mg/kg/day (inactive)"

----------
Test system: rodent lifetime carcinogenesis bioassay, tumor incidence TD50
Protocol: carcinogenic potency in animals, long-term in vivo studies, CPDB compilation (AID 1745844)
Stated Conditions: rat; strain Fischer 344; males; in feed; site: seminal vesicle; lesion: adenoma + carcinoma; dosed 12 weeks; study length 103 weeks
Measured Metric: TD50

test_smiles=OCC(CO)(CBr)CBr assay_value="453 mg/kg/day"

Where these numbers come from: PubChem BioAssay AID1745844
